ASSAY_TARGET: T1, human PD-1 (recombinant, titrated in BIAcore) (human, UniProt Q15116 25-170)
T1 construct: extracellular domain; also called recombinant human PD-1 extracellular domain
T1 sequence (Q15116 25-170): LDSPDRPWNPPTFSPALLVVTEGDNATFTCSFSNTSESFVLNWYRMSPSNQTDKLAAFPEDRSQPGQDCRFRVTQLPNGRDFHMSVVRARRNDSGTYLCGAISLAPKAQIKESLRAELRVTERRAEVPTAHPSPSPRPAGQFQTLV
ASSAY_PROCEDURE: SPR BIAcore 3000; antibody captured by anti-human Fc, human PD-1 titrated;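 note: CM5 chip with amine-coupled goat anti-human Fc F(ab′)₂, HBS-EP running buffer at 10 µL/min, blank-surface-subtracted sensorgrams fitted in BIAevaluation 3.2 for kinetic constants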
RECORDED_ENDPOINT: Kd (nM)
Output spec: scalar in nM, unitless text.

949 VK1 gL1 gH1b (antibody, V domains shown, Humanised; human kappa constant (Km3)) VH: EVQLVQSGAEVKKPGSSVKVSCKAFGYTFTTYPIEWMRQAHGQGLEWIGNFHPYNDDTKYNEKFKGRVTITVDKSTTTVYMELSSLRSEDTAVYYCARENYGSHGGFVYWGQGTLVTVS VL: ENVLTQSPFSLSASVGDRVTITCRASSSVISSYLHWYQQKPAKAPKLWIYSTSNLASGVPDRFSGSGSGTSYTLTISSLQPEDFATYYCQQYNGYPLTFGGGTKVEIK
2.92

Please look at the following binder next.
Reported Kd of 949 VK3 gL11 gH1a (antibody, V domains shown, Humanised; human kappa constant (Km3)) VH: EVQLVQSGAEVKKPGASVKVSCKAFGYTFTTYPIEWMRQAHGQGLEWIGNFHPYNDDTKYNEKFKGRVTMTVDKSTTTVYMELSSLRSEDTAVYYCARENYGSHGGFVYWGQGTLVTVS VL: ENVLTQSPGTLSLSPGERATLSCRASSSVISSYLHWYQQKPGQAPRLWIYSTSNLASGVPDRFSGSGSGTSYTLTISRLEPEDFATYYCQQYNSYPLTFGGGTKVEIK : 4.89
